Target: human HPK1 protein (Homo sapiens)
Construct: recombinant human HPK1 protein (a.a. 1-346) was expressed in Sf9 insect cells; GST (N); purchased Signalchem M23-11G; host or cells: Sf9 insect cells (baculovirus)
Sequence (Q92918 1-346): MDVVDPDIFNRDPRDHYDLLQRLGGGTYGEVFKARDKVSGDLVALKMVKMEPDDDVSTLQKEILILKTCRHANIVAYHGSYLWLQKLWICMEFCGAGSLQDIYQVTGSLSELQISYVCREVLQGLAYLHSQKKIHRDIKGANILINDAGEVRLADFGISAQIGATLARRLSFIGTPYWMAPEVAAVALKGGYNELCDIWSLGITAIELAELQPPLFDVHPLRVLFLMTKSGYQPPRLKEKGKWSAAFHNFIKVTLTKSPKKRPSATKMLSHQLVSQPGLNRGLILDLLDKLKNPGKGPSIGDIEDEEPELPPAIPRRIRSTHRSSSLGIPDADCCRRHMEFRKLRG
Test: Human HPK1 protein TR-FRET assay
Type: biochemical
Conditions: 1 mM ATP, Table 20
pIC50: −log10 of the molar value.
metric-name: pIC50

Consider the worked cases shown below.
[[record]]
molecule = "CCN1CCN(Cc2ccc(NC(=O)N3Cc4cc(Oc5ccnc6[nH]c(=O)ccc56)cnc4C(C)C3)cc2C(F)(F)F)CC1 (single isomer, unassigned) [XIV-2]"
measured_value = "> 6.30"

[[record]]
molecule = "Cc1cc2c(Oc3cnc4c(c3)CN(C(=O)Nc3ccc(CN5CCNC6(CC6)C5)c(C(F)(F)F)c3)C[C@H]4C)ccnc2[nH]1 [XIV-94]"
measured_value = "> 6.30"

[[record]]
molecule = "CC[C@H]1CN(C(=O)Nc2ccc(CN3CCN(CC)CC3)c(C(F)(F)F)c2)Cc2cc(Oc3ccnc4[nH]c(C#N)cc34)cnc21 [XIV-20]"
measured_value = "> 6.30"

[[record]]
molecule = "CCN1CCN(Cc2ccc(NC(=O)N3CCc4cnc(Nc5ccnc6[nH]ccc56)nc4C3)cc2C(F)(F)F)CC1 [XVIII-11]"
measured_value = "5.30 to 6.30"

[[record]]
molecule = "CC[C@H]1CN(C(=O)Nc2ccc(CN3CCN(C)CC3)c(C(F)(F)F)c2)Cc2cc(Oc3ccnc4[nH]c(C(=O)N5CC[C@H](O)C5)cc34)cnc21 [XIV-109]"
measured_value = "> 6.30"


Ask: Name the reported pIC50 value associated with the molecule CN1CCN(Cc2ccc(NC(=O)N3CCc4ccc(Oc5c(F)cnc6[nH]c(-c7cnn(C)c7)cc56)cc4C3)cc2C(F)(F)F)CC1 [compound 19]
Result: > 6.30

Ask: What about this molecule? CC[C@H]1CN(C(=O)Nc2ccc(CN3CCN(CC)CC3)c(C(F)(F)F)c2)Cc2cc(Oc3ccnc4[nH]c(C5(O)CC5)cc34)cnc21 [XIV-79]
Result: > 6.30

Ask: Next: CC[C@H]1Cc2ncc(Oc3ccnc4[nH]ccc34)cc2CN1C(=O)Nc1ccc(CN2CCN(CC)CC2)c(C(F)(F)F)c1 [XVIII-16]
Result: > 6.30
